Please respond with reported IC50 for every item in the list.
- SYSTEM NAME: KRAS G12C (GMPPNP-loaded) and PI3Ka (Ras-binding domain) interaction (Homo sapiens (Human), UniProt P01116, C118S/C51S/C80L/G12C)
- Sequence (P01116 other isoform, or with tags, fused parts or gaps G12C/C51S/C80L/C118S): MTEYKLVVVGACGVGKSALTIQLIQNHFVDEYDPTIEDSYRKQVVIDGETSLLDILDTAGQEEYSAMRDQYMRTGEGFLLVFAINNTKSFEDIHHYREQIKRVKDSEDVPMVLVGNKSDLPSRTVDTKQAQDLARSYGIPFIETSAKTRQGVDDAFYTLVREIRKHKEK
- ASSAY REMARKS: Inhibition of KRAS G12C and PI3Ka binding (AlphaScreen)
- MEASUREMENT PARAMETERS: KRAS G12C loaded with GMPPNP, PI3Ka RBD, 2 hours preincubation; read-out: PI3K RBD K-Ras IC50

Query N#CC[C@H]1CN(c2nc(OC[C@@]34CCCN3C[C@H](F)C4)nc3c(F)c(-c4cccc5ccc(F)c(F)c45)ncc23)CCN1C(=O)/C=C/CN1C2COCC1C2 yields IC50 of < 10 nM

Lab book: IC50 of N#CC[C@H]1CN(c2nc(OC[C@@]34CCCN3C[C@H](F)C4)nc3c(F)c(-c4cccc5cccc(Cl)c45)ncc23)CCN1C(=O)/C=C/CN1CC[C@@H](F)C1 noted as < 10 nM

The value of IC50 measured for the compound CCc1noc(/C=C/C(=O)N2CCN(c3nc(OCC45CCCN4CCC5)nc4c(F)c(-c5cccc6cccc(Cl)c56)ncc34)C[C@@H]2CC#N)n1 turned out to be 100 to 500 nM

Looking up Cc1noc(/C=C/C(=O)N2CCN(c3nc(OC[C@@]45CCCN4C[C@H](F)C5)nc4c3CCN(c3cccc5cccc(Cl)c35)C4)C[C@@H]2CC#N)n1 , I see its IC50 listed as < 10 nM

Reported IC50 for N#CC[C@H]1CN(c2nc(OC[C@@]34CCCN3C[C@H](F)C4)nc3c(F)c(-c4cccc5ccc(F)c(F)c45)ncc23)CCN1C(=O)/C=C/CN1CCSCC1 was < 10 nM

Consider CN1CC[C@@H]1/C=C/C(=O)N1CCN(c2nc(OC[C@@]34CCCN3C[C@H](F)C4)nc3c(F)c(-c4cccc(Cl)c4C4CC4)ncc23)C[C@@H]1CC#N . Its measured IC50 is 10 to 100 nM

For this compound ( Cc1nccc(/C=C/C(=O)N2CCN(c3nc(OC[C@@]45CCCN4C[C@H](F)C5)nc4c(F)c(-c5cccc6cccc(Cl)c56)ncc34)C[C@@H]2CC#N)n1 ), measured IC50 is < 10 nM

Per the record, N#CC[C@H]1CN(c2nc(OC[C@@]34CCCN3C[C@H](F)C4)nc3c(F)c(-c4cccc5ccc(F)c(Cl)c45)ncc23)CCN1C(=O)/C=C/c1ccnc(C2CC2)n1 has IC50 of < 10 nM

Reported IC50 of N#CC[C@H]1CN(c2nc(OCC34CCCN3CCC4)nc3c2CCN(c2cccc4cccc(Cl)c24)C3)CCN1C(=O)/C=C/CN1CCC(F)(F)CC1 : < 10 nM

N#CC[C@H]1CN(c2nc(OC[C@@]34CCCN3C[C@H](F)C4)nc3c(F)c(-c4cccc(Cl)c4C4CC4)ncc23)CCN1C(=O)/C=C/CN1CC[C@H](F)C1 has a reported IC50 of < 10 nM

Entry Cc1cc(N)nc(C2Cc3nc(OC[C@@]45CCCN4C[C@H](F)C5)nc(N4CCN(C(=O)/C=C/C5CCN5C)[C@@H](CC#N)C4)c3CC2C)c1C(F)(F)F (mixture of isomers) , IC50 reported as < 10 nM
